assay: qHTS RealTime-Glo MT Cell Viability Assay in HepG2 cells - 32 hour (AID 1224877); conditions: RealTime-Glo luminescence; series mostly up to 76.8 µM; further: nearly all actives have a fitted effect of over 55% in size
Results filed as inconclusive are left out. Active and inactive are the calls of the source. The call rests on the fitted dose curve; in most records, active means well fitted cell-killing curve with a large enough effect in the repeat runs; inconclusive means weak or mixed curves; inactive means flat fitted curve, though single readings scatter.
endpointName: activity change, negative = cytotoxic

INSERT INTO assay_data (compound, valuemeasured) VALUES
  ('CC(=O)NCCO', 'inactive'),
  ('CSCC[C@H](NC(=O)[C@H](Cc1c[nH]c2ccccc12)NC(=O)CCNC(=O)OC(C)(C)C)C(=O)N[C@@H](CC(=O)O)C(=O)N[C@@H](Cc1ccccc1)C(N)=O', 'inactive'),
  ('Oc1ccc2c(c1)Cc1ccccc1-2', 'inactive'),
  ('SCCc1cnccn1', 'inactive'),
  ('C=C(C)c1ccccc1', 'inactive'),
  ('CC(C)c1ccc(C(=O)N=C(N)N)cc1S(C)(=O)=O', 'inactive'),
  ('CC(C)C1CCC(C(=O)N[C@H](Cc2ccccc2)C(=O)O)CC1 (stereo partly drawn)', 'inactive'),
  ('O=NN(CCCl)C(=O)NCCCl', 'inactive'),
  ('O=C1OC(=O)c2c(Br)c(Br)c(Br)c(Br)c21', 'inactive'),
  ('O=C(O)c1cc(Cl)cc(Cl)c1O', 'inactive'),
  ('CCCCCC', 'inactive'),
  ('CC(C(=O)O)c1ccc(C(=O)c2cccs2)cc1 (stereo not drawn)', 'inactive'),
  ('CCC1CCC(CCC(=O)O)C1 (stereo not drawn)', 'inactive');
